Target: DGKζ (Homo sapiens (Human), UniProt Q13574)
Sequence (Q13574 other isoform, or with tags, fused parts or gaps): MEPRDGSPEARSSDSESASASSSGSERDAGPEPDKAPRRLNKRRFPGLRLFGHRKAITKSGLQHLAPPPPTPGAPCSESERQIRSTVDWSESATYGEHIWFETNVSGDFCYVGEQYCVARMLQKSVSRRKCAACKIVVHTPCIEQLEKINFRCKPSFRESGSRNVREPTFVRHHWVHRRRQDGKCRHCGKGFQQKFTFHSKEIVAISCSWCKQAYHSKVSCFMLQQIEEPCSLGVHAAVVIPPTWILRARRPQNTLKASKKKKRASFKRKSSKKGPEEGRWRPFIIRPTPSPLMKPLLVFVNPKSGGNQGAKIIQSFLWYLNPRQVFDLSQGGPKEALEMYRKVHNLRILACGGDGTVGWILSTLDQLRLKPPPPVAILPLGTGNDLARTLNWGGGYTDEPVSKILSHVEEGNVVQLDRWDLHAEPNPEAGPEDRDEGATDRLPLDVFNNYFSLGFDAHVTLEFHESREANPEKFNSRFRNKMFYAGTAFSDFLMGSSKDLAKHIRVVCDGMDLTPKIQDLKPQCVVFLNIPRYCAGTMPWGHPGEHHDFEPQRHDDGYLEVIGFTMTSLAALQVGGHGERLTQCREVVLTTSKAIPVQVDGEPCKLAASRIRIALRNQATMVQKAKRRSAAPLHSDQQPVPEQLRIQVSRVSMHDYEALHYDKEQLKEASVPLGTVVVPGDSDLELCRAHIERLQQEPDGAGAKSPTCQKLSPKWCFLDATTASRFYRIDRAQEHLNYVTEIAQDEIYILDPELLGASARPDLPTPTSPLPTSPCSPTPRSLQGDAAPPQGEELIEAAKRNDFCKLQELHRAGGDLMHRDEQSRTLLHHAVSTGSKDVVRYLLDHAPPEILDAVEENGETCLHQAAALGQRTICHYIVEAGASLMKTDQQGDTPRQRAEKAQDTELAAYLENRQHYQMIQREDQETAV
Assay: Biochemical DGK IC50 assay, DGKζ ADP-Glo assay
Details: 0.5 nM enzyme, 140 μM ATP, 80 μM DAG; read-out: DGKζ ADP-Glo assay IC50
# pIC50 annotations
Here pIC50 is given on a logarithmic scale as minus log10 of the concentration in mol/L.

CC[C@H]1CN(C(C)c2ccc(F)cc2OCCOC)[C@H](CC)CN1c1cc(=O)n(C)c2cn(CC#N)nc12 (stereo partly shown) [Compound A85] | 5.93
CC[C@H]1CN(C(C)c2ccc(C(F)(F)F)cn2)[C@H](CC)CN1c1cc(=O)n(C)c2cn(CC#N)nc12 (single isomer, unassigned) [Compound A348b] | 6.86
CC[C@H]1CN(C(C)c2c(C)cnn2CC)[C@H](CC)CN1c1cc(=O)n(C)c2cn(CC#N)nc12 (single isomer, unassigned) [Compound A227b] | 6.16

So what's the measured pIC50 for this one? CC[C@H]1CN(C(C)c2ccc(F)cc2COC)[C@H](CC)CN1c1cc(=O)n(C)c2cn(CC#N)nc12 (stereo partly shown) [Compound A79]
6.94
